readout: melting point

Worked cases, melting point given:
compound="CCC(c1ccccc1)c1c(O)c2c(oc1=O)CCCCCC2 (centres undefined)" readout="melting point" reported="201 to 202 °C"
compound=OCCOc1ccc2ccn(C3CCN(CCc4ccc(F)cc4)CC3)c2c1 readout="melting point" reported="118 to 119 °C"
compound=COc1ccc(-c2ccc(C(=O)Nc3ccc4cc(CN5CCCCC5)cnc4c3C)cc2F)cc1 readout="melting point" reported="148 to 149 °C"
compound=Cc1cc(-n2ccnc2)c2cccc(OCc3c(Cl)ccc(S(=O)(=O)N4CCC[C@H]4C(=O)NCC4CCN(CCC(=O)O)CC4)c3Cl)c2n1 readout="melting point" reported="140 °C"
compound=CS(=O)(=O)c1ccc(-c2cnn(-c3ccc(Cl)cc3)c(=O)c2-c2ccc(F)cc2)cc1 readout="melting point" reported="214 to 216 °C"

melting point measured on CCCCc1cc(C(=O)O)ccc1C(N)C(=O)O (centres undefined) = 227 °C

melting point measured on Nc1nnc(-c2ccccc2Nc2cccc(C(F)(F)F)c2)s1 = 122 to 123 °C
